Target: T1, activated KLK4 (human KLK4, C-terminal His tag, pro-KLK4 activated with thermolysin) (UniProt Q9Y5K2 31-254)
T1 chain: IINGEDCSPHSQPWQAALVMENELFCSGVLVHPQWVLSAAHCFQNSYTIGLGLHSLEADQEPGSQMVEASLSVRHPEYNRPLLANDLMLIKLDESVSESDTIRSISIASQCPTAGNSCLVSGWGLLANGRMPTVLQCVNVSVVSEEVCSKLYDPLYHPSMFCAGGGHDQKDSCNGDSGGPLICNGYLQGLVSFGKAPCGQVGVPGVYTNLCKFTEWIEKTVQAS
Experiment: peptide substrate degradation inhibition
pKi: −log10 of the molar value.
outcome_measure: pKi

>>> experimental_value("KLK4 inhibitory peptide K40005 (designed binder) GSGMKETAAAKFERQHMDSPDLGTDDDDKAMADIGSANSDPQFGLFSKYRTPNCSQQAMGACQRIYKPVCGSDMSTYANECTLCMKIREGGHNIKIIRNGPCGASAAA")
9.68
>>> experimental_value("KLK4/KLK8 inhibitory peptide K41047 (designed binder) GSGMKETAAAKFERQHMDSPDLGTDDDDKAMADIGSANSDPQFGLFSKYRTPNCMRFHKDGCARIYDPVCGSDMSTYANECTLCMKIREGGHNIKIIRNGPCGASAAA")
8.86
>>> experimental_value("KLK4/KLK8 inhibitory peptide K41025 (designed binder) GSGMKETAAAKFERQHMDSPDLGTDDDDKAMADIGSANSDPQFGLFSKYRTPNCSRYKSGGCTRIFDPVCGSDMSTYANECTLCMKIREGGHNIKIIRNGPCGASAAA")
7.79
>>> experimental_value("KLK4/KLK8 inhibitory peptide K41041 (designed binder) GSGMKETAAAKFERQHMDSPDLGTDDDDKAMADIGSANSDPQFGLFSKYRTPNCQRYSQWGCTRQLDPVCGSDMSTYANECTLCMKIREGGHNIKIIRNGPCGASAAA")
9.40
>>> experimental_value("KLK4/KLK8 inhibitory peptide K41043 (designed binder) GSGMKETAAAKFERQHMDSPDLGTDDDDKAMADIGSANSDPQFGLFSKYRTPNCRRYSIHGCNRMYAPVCGSDMSTYANECTLCMKIREGGHNIKIIRNGPCGASAAA")
9.68
>>> experimental_value("KLK4 inhibitory peptide K40003 (designed binder) GSGMKETAAAKFERQHMDSPDLGTDDDDKAMADIGSANSDPQFGLFSKYRTPNCELYVEDVCQRIFKPVCGSDMSTYANECTLCMKIREGGHNIKIIRNGPCGASAAA")
9.70
